Sourced from patent US8465769B2

# Assay Info: Solubility of the active ingredients in water
# Format: physicochemical
# Condition Set: 20 °C, thermodynamic from solid
Counter-ions that a name gives are not always drawn.
Attribute: solubility at 15 min
Quantity Measured: solubility at 15 min

> print(dat)
                                   compound     quantity.measured  assay.value
1  CNC[C@H](O)c1cccc(O)c1 [Phenylephrine hydrochloride]  solubility at 15 min    500 mg/mL
2  CC(C)(C)NCC(O)c1cc(O)cc(O)c1 (centres unmarked) [Terbutaline sulphate]  solubility at 15 min    500 mg/mL

====

# Assay Info: Solubility of the active ingredients in water
# Type: physicochemical
# Condition Set: thermodynamic from solid, at 20° C., Pharmeuropa Technical Guide method, shaking for 15 min, read-out: solubility in water
# Procedure: The invention is suitable for active ingredients which have a solubility in water of at least 10 g/l, preferably at least 30 g/l, particularly preferably of at least 50 g/l, especially preferably of at least 100 g/l, 200 g/l, 300 g/l or 400 g/l at 20° C. […]
Quantity Measured: solubility at 15 min (µg/mL)

> print(dat)
                line.notation     quantity.measured  measurement.unit  assay.value
1  Cn1c(=O)c2[nH]cnc2n(C)c1=O  solubility at 15 min             µg/mL         8400
